# experimental-details: self-splicing fitness, log relative to wild type (ln ratio); higher = more splicing; Tetrahymena group I intron in knt gene, E. coli kanamycin selection, DiMSum; sequences stand for … in CUCUCU…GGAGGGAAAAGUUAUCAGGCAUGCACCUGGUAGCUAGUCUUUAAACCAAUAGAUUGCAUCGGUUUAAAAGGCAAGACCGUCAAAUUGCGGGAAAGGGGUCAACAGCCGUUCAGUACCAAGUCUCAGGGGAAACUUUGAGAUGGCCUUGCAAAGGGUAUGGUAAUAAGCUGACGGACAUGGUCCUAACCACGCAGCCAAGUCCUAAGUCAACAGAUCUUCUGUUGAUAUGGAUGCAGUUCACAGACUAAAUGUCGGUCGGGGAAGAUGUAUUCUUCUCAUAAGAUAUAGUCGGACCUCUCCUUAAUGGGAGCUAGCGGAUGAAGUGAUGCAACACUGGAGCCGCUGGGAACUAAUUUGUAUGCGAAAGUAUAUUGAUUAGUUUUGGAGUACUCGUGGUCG;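 further: selection with 25 µg/mL kanamycin versus none on LB agar overnight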
# assay-conditions: 30 °C
Tag: true if measured self-splicing fitness (ln) is not below -3, false if it is.

Does `UUUAAGCAAUAUUACGUAAC` have a reported self-splicing fitness (ln) of at least -3? false

Now try `GAGCAGCAAUAUUACGUUGC` . false

Now try `CUUCAGCAAUAUUACGUAGC` . false

###

# experimental-details: self-splicing fitness, log relative to wild type (ln ratio); higher = more splicing; Tetrahymena group I intron in knt gene, E. coli kanamycin selection, DiMSum; sequences stand for … in CUCUCU…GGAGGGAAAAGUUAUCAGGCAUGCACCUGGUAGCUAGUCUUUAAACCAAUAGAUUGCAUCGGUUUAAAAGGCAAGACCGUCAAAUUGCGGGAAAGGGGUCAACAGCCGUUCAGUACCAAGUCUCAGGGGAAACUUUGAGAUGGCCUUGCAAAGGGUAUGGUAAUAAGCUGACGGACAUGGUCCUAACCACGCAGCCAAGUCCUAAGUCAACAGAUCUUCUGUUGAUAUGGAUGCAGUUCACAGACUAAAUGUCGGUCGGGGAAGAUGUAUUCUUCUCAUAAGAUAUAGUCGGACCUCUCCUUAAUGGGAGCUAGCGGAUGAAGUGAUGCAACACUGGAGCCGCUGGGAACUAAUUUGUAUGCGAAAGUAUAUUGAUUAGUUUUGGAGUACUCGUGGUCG
# assay-conditions: 37 °C
Tag: yes (1) if measured self-splicing fitness (ln) is not below -0.8, no (0) if it is.

Some entries whose results are on file:
INSERT INTO results (residue_string, group) VALUES
  ('AUGAAGCAAUAUUACGCUUU', 'no (0)'),
  ('AACUAGCAAUAUUACGAGUC', 'no (0)'),
  ('GCAAAGCAAUAUUACGAAGC', 'no (0)'),
  ('UGGUAGCAAUAUUACGCCUC', 'no (0)'),
  ('UUCCAGCAAUAUUACGCAUG', 'no (0)');

Now turn to the next sequence.
Does `AUUUAGCAAUAUUACGUGGG` have a reported self-splicing fitness (ln) of at least -0.8? no (0)

###

# experimental-details: self-splicing fitness, log relative to wild type (ln ratio); higher = more splicing; Tetrahymena group I intron in knt gene, E. coli kanamycin selection, DiMSum; sequences stand for … in CUCUCU…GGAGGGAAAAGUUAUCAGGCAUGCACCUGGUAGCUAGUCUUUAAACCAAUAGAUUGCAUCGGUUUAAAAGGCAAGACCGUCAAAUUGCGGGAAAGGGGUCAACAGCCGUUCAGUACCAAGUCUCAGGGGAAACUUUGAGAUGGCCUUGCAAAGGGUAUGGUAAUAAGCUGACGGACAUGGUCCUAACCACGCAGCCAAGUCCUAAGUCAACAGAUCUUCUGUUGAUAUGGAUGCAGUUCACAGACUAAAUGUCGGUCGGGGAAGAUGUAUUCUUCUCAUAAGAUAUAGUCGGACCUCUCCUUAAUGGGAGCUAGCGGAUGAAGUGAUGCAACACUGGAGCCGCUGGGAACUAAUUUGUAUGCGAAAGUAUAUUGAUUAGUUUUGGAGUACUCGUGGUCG
# assay-conditions: 30 °C
Tag: met if measured self-splicing fitness (ln) is not below -2, not met if it is.

INSERT INTO measurements (residue_string, group) VALUES
  ('AGGUAGCAAUAUUACGGUUC', 'not met'),
  ('GCUUAGCAAUAUUACGCUAA', 'not met'),
  ('AGACAGCAAUAUUACGAGUG', 'not met'),
  ('GUGAAGCAAUAUUACGCAAU', 'met'),
  ('UAUUAGCAAUAUUACGCCGG', 'met');

Does `UGUAAGCAAUAUUACGGACC` have a reported self-splicing fitness (ln) of at least -2? met

Now try `UUCCAGCAAUAUUACGAACG` . not met

Now try `UCUGAGCAAUAUUACGGGCC` . not met

###

# experimental-details: self-splicing fitness, log relative to wild type (ln ratio); higher = more splicing; Tetrahymena group I intron in knt gene, E. coli kanamycin selection, DiMSum; sequences stand for … in CUCUCU…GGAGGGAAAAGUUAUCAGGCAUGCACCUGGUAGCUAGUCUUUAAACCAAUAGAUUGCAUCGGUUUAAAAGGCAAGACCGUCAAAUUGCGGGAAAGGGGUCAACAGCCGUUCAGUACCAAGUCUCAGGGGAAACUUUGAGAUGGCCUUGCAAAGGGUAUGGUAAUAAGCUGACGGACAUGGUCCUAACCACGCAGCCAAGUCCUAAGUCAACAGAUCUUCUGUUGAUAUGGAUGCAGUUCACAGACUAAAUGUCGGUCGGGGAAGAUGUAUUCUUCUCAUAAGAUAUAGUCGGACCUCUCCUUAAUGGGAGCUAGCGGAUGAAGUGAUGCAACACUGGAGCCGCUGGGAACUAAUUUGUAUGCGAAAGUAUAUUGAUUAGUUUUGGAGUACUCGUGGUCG
# assay-conditions: 37 °C
Tag: condition met if measured self-splicing fitness (ln) is not below -0.9, condition not met if it is.

Some entries whose results are on file:
INSERT INTO assay_data (residue_string, group) VALUES
  ('ACUCAGCAAUAUUACGGACC', 'condition met'),
  ('GAGCAGCAAUAUUACGAGUU', 'condition not met'),
  ('GAGAAGCAAUAUUACGGACC', 'condition met');

Does `GCGUAGCAAUAUUACGCGGU` have a reported self-splicing fitness (ln) of at least -0.9? condition not met

###

# experimental-details: self-splicing fitness, log relative to wild type (ln ratio); higher = more splicing; Tetrahymena group I intron in knt gene, E. coli kanamycin selection, DiMSum; sequences stand for … in CUCUCU…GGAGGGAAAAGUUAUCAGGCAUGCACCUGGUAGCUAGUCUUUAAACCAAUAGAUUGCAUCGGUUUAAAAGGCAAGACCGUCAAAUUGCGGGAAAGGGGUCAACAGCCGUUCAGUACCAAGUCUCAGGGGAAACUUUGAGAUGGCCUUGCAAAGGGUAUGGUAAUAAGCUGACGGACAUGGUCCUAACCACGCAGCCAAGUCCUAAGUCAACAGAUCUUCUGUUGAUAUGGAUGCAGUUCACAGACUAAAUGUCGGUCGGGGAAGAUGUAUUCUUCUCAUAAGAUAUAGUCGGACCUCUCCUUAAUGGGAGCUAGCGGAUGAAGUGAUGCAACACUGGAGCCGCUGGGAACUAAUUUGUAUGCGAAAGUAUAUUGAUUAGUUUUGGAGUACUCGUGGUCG
# assay-conditions: 30 °C
Tag: satisfied if measured self-splicing fitness (ln) is not below -3, not satisfied if it is.

Some entries whose results are on file:
INSERT INTO measurements (residue_string, group) VALUES
  ('UUGCAGCAAUAUUACGUGUG', 'satisfied'),
  ('UAAUAGCAAUAUUACGACGG', 'satisfied'),
  ('AUUGAGCAAUAUUACGUCAC', 'not satisfied'),
  ('GGGAAGCAAUAUUACGCGAA', 'satisfied'),
  ('GCACAGCAAUAUUACGCAAG', 'not satisfied'),
  ('UGCCAGCAAUAUUACGAUUG', 'satisfied'),
  ('UGUGAGCAAUAUUACGGUAU', 'not satisfied'),
  ('GGCAAGCAAUAUUACGUAAG', 'satisfied'),
  ('AUAGAGCAAUAUUACGUCUA', 'satisfied'),
  ('GACUAGCAAUAUUACGGUAG', 'satisfied');

Now turn to the next sequence.
Does `AGUCAGCAAUAUUACGUUAC` have a reported self-splicing fitness (ln) of at least -3? satisfied

###

# experimental-details: self-splicing fitness, log relative to wild type (ln ratio); higher = more splicing; Tetrahymena group I intron in knt gene, E. coli kanamycin selection, DiMSum; sequences stand for … in CUCUCU…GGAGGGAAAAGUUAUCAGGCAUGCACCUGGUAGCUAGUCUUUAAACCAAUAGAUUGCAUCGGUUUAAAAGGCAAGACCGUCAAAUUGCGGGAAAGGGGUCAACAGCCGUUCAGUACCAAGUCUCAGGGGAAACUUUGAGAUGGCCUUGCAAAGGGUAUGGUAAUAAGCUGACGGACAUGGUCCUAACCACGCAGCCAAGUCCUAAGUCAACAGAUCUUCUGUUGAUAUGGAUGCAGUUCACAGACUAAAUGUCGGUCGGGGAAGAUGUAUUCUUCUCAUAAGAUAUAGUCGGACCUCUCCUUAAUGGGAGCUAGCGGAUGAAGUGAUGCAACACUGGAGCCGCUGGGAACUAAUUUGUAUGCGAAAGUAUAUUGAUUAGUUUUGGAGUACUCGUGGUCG
# assay-conditions: 37 °C
Tag: MET if measured self-splicing fitness (ln) is not below -0.9, NOT MET if it is.

Some entries whose results are on file:
INSERT INTO measurements (residue_string, group) VALUES
  ('AAGAAGCAAUAUUACGGCGC', 'MET'),
  ('GCAGAGCAAUAUUACGUCGG', 'NOT MET'),
  ('GCUCAGCAAUAUUACGGGCC', 'NOT MET'),
  ('GCACAGCAAUAUUACGGACG', 'MET'),
  ('AUAAAGCAAUAUUACGUAUC', 'NOT MET');

Does `GAACAGCAAUAUUACGUCCG` have a reported self-splicing fitness (ln) of at least -0.9? MET

Now try `AGCCAGCAAUAUUACGUGCG` . MET
